So I've got a bunch of molecules here, and I need their cell viability values.
tested on: HCI09 (cells of a triple-negative luminal androgen receptor type breast cancer xenograft); experiment: cell viability (% of vehicle); higher = less cytotoxic; conditions: 10 µM; 72 h;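 note: PDX cells carrying CMV promoter-driven luciferase, viability read as total photon flux per second by IVIS imaging following D-luciferin, vehicle control 0.1% DMSO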
Give bare numbers.

[[record]]
molecule = "COc1ccc2c(c1)c(CC(=O)O)c(C)n2C(=O)c1ccc(Cl)cc1"
measured_on = "HCI09"
test_value = 96.7

[[record]]
molecule = "CC(C)(C)Cn1c(N)nc2ccc(-c3[nH]c(C(C)(C)C)nc3-c3ccc(F)cc3)nc21.CS(=O)(=O)O.CS(=O)(=O)O"
measured_on = "HCI09"
test_value = 36.8

[[record]]
molecule = "NC(=O)c1cnccn1 [Pyrazinamide]"
measured_on = "HCI09"
test_value = 90.8


Hi team, please reply with cell viability for each item in this list.
1. CCCCC(=O)OC1CCC2C3CCc4cc(O)ccc4C3CCC12C (stereo not drawn) [Estradiol valerate]
2. COC(=O)NC(C(=O)NC(Cc1ccccc1)C(O)CN(Cc1ccc(-c2ccccn2)cc1)NC(=O)C(NC(=O)OC)C(C)(C)C)C(C)(C)C (stereo not drawn)
3. O=C(NCC(O)CO)c1ccncc1Nc1ccc(I)cc1F (stereo not drawn)
4. CC(=O)N1CCN(c2ccc(OCC3COC(Cn4ccnc4)(c4ccc(Cl)cc4Cl)O3)cc2)CC1 (single isomer, unassigned; (+)) [(+)-Ketoconazole]
5. CCCNCC(O)COc1ccccc1C(=O)CCc1ccccc1.Cl (stereo not drawn) [Propafenone HCl]

Response given:
98.1
57.5
55.3
29.5
96

* * *

tested on: HCI03 (cells of an ER-positive luminal breast cancer xenograft); test: cell viability (% of vehicle); higher = less cytotoxic; conditions: 10 µM; 72 h
Where a name gives a salt, the structure may show the parent alone.
So I've got a bunch of compounds here, and I need their cell viability values.
Give bare numbers.

[[record]]
compound = "CCOc1nc2cccc(C(=O)O)c2n1Cc1ccc(-c2ccccc2-c2nn[nH]n2)cc1"
test_value = 122

[[record]]
compound = "CCOc1nc2cccc(C(=O)O)c2n1Cc1ccc(-c2ccccc2-c2nc(=O)o[nH]2)cc1"
test_value = 142

[[record]]
compound = "CO[C@H]1C[C@@H]2CC[C@@H](C)[C@@](O)(O2)C(=O)C(=O)N2CCCC[C@H]2C(=O)O[C@H]([C@H](C)C[C@@H]2CC[C@@H](OC(=O)C(C)(CO)CO)[C@H](OC)C2)CC(=O)[C@H](C)/C=C(\\C)[C@@H](O)[C@@H](OC)C(=O)[C@H](C)C[C@H](C)/C=C/C=C/C=C/1C"
test_value = 57.5

[[record]]
compound = "COCCCN1CCC(NC(=O)c2cc(Cl)c(N)c3c2OCC3)CC1 [Prucalopride]"
test_value = 134


Hi team, please reply with cell viability for each item in this list.
1. CO[C@H]1C(=O)[C@]2(C)[C@@H](OC)C[C@H]3OC[C@@]3(OC(C)=O)[C@H]2[C@H](OC(=O)c2ccccc2)[C@]2(O)C[C@H](OC(=O)[C@H](O)[C@@H](NC(=O)OC(C)(C)C)c3ccccc3)C(C)=C1C2(C)C
2. COc1cc(C=CC(=O)N2CCN(CC(=O)N3CCCC3)CC2)cc(OC)c1OC.O=C(O)C=CC(=O)O [Cinepazide maleate]
3. O=C(O)c1cc(-c2ccccc2)nc2ccccc12
4. CC12CC3CC(C)(C1)CC(N)(C3)C2.Cl [Memantine hydrochloride]
5. COc1cc2nccc(Oc3ccc(NC(=O)Nc4cc(C)on4)c(Cl)c3)c2cc1OC

Response given:
[113, 130, 125, 146, 80]

Hi team, please reply with cell viability for each item in this list.
1. CCCCCCCCCCCC(CC1OC(=O)C1CCCCCC)OC(=O)C(CC(C)C)NC=O (stereo unspecified)
2. COC(=O)C=CC(=O)OC [Dimethyl Fumarate]
3. CN(C)c1nc(N(C)C)nc(N(C)C)n1
4. Cc1cccc(N(C)C(=S)Oc2ccc3ccccc3c2)c1 [Tolnaftate]
5. OCCN(CCO)c1nc(N2CCCCC2)c2nc(N(CCO)CCO)nc(N3CCCCC3)c2n1
6. CCCCNc1ccc(C(=O)OCCN(C)C)cc1.Cl [Tetracaine HCl]

Response given:
1: 122; 2: 129; 3: 96.7; 4: 140; 5: 116; 6: 134

Hi team, please reply with cell viability for each item in this list.
1. CC(=O)N(c1onc(C)c1C)S(=O)(=O)c1ccc(N)cc1
2. COc1cc2nc(N(C)CCCNC(=O)C3CCCO3)nc(N)c2cc1OC.Cl (stereo unspecified) [Alfuzosin HCl]
3. O=C(C=Cc1ccc(O)c(O)c1)OC1CC(O)(C(=O)O)CC(O)C1O (stereo unspecified)
4. CC(Cn1cnc2c(N)ncnc21)OCP(=O)(O)O (stereo unspecified)
5. CC(=O)c1cc2c(o1)C(=O)c1ccccc1C2=O
6. CC12CCC3c4ccc(O)cc4CCC3C1CCC2OC(=O)CCC1CCCC1 (stereo unspecified) [Estradiol Cypionate]
7. CNS(=O)(=O)CCc1ccc2[nH]cc(C3CCN(C)CC3)c2c1.Cl

Response given:
[116, 97.4, 153, 123, 54.2, 101, 127]

Origin of measurements: the supplement of paper PMC6992640
